Record form. Attribute: ratio to parent. Fill in for each entry.
B1: Arabidopsis thaliana AtSLY1 (yeast bait fusion) [Arabidopsis thaliana] / A. thaliana GAI (yeast prey fusion) [Arabidopsis thaliana] (parent complex)
chain 1: MKRSTTDSDLAGDAHNETNKKMKSTEEEEIGFSNLDENLVYEVLKHVDAKTLAMSSCVSKIWHKTAQDERLWELICTRHWTNIGCGQNQLRSVVLALGGFRRLHSLYLWPLSKPNPRARFGKDELKLTLSLLSIRYYEKMSFTKRPLPESK
chain 2: MKRDHHHHHHQDKKTMMMNEEDDGNGMDELLAVLGYKVRSSEMADVAQKLEQLEVMMSNVQEDDLSQLATETVHYNPAELYTWLDSMLTDLNPPSSNAEYDLKAIPGDAILNQFAIDSASSSNQGGGGDTYTTNKRLKCSNGVVETTTATAESTRHVVLVDSQENGVRLVHALLACAEAVQKENLTVAEALVKQIGFLAVSQIGAMRKVATYFAEALARRIYRLSPSQSPIDHSLSDTLQMHFYETCPYLKFAHFTANQAILEAFQGKKRVHVIDFSMSQGLQWPALMQALALRPGGPPVFRLTGIGPPAPDNFDYLHEVGCKLAHLAEAIHVEFEYRGFVANTLADLDASMLELRPSEIESVAVNSVFELHKLLGRPGAIDKVLGVVNQIKPEIFTVVEQESNHNSPIFLDRFTESLHYYSTLFDSLEGVPSGQDKVMSEVYLGKQICNVVACDGPDRVERHETLSQWRNRFGSAGFAAAHIGSNAFKQASMLLALFNGGEGYRVEESDGCLMLGWHTRPLIATSAWKLSTN

Variants of: B1
Assay: pull-down (IP: His, immunoblot); without GST-GID1C, without GA3 (GAI in A Form); parent: 1
One number for each entry.

Each of the following entries comes with a recorded value; kindly state ratio to parent for each.
1. chain 1 E138K
2. chain 1 H104Y

1. 1.86
2. 5.65

Each of the following entries comes with a recorded value; kindly state ratio to parent for each.
1. chain 1 P114L
2. chain 1 T128A

1. 1.89
2. 2.27
